Molecular target: T1, recombinant human TIGIT (human, UniProt Q495A1 22-141, limits assumed)
T1 construct: recombinant human TIGIT used in Carterra SPR; also called hTIGIT
T1 sequence (looked up): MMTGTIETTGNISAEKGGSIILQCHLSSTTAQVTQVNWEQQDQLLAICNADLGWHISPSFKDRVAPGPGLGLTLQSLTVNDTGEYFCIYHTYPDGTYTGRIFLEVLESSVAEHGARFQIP
Test: SPR Carterra, average
Observation Type: koff (s⁻¹)
Response body: numeric value in s⁻¹, unit text excluded.

Look up koff for this binder: TIGIT-SC167 (Fc fusion, VHH-Fc fusion in assay) VHH: EVQLVESGGGLVQPGGSLRLSCAASGRTFSFMGWFRQAPGKEREWVASVLRGGYTWYADSVKGRFTISADNSKNTAYLQMNSLKPEDTAVYYCAREGSGYASDYWGQGTLVTVSS
0.00349
